z-score overview
Assay: S. cerevisiae RM11-1a growth modifiers, primary screen, strain RM11-1a, OD600, basal, 24 h (AID 1177);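 further: cultures grown under basal conditions with no added stressor; test concentration not given here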
Conditions: OD600, 24 h, higher = more signal, called active from +8 up or from −8 down
The source made the active and inactive calls.

[
  {
    "Compound": "CO[C@@H]1COC(=O)CC=C[C@@H](C)COC(=O)[C@H](COCc2ccccc2)NC(=O)CC=C[C@H]1C",
    "z-score": "0.158 (inactive)"
  },
  {
    "Compound": "CC(C)=CCCC(C)=CCON=C1[C@H]2CCn3c(=O)n(Cc4cc5c(cc4Cl)OCO5)c(=O)n3[C@H]2[C@H](O)[C@@H]2O[C@H]12",
    "z-score": "-0.537 (inactive)"
  },
  {
    "Compound": "O=C1[C@H]2[C@H]3[C@H](O)[C@H](O)CC(=NO[C@@H]4O[C@H](CO)[C@@H](O)[C@H](O)[C@H]4O)[C@H]3CC[C@H]2C(=O)N1Cc1ccc2c(c1)OCO2",
    "z-score": "0.929 (inactive)"
  }
]

Switching to the query record.
Query :: What value of z-score has been reported for the following compound? COC(=O)[C@H](C)NC(=O)CCC1CC(OC(=O)NCc2cccc3ccccc23)CC2(CCCC(COC(=O)NCC3CCCCC3)O2)O1 (some centres undefined)
Result :: 0.617 (inactive)
